Reference for the values: ChEMBL document CHEMBL1157546

experimental protocol: Volume of distribution at steady state in rat at […], iv
Type: ADME, organism-based
Design: dose 1.2 mg/kg, route intravenous
condition notes: in vivo, read-out: Vdss
observed property: Vd (L/kg)
Note: unit L/kg is implicit; provide only the numeric part.

Given the compound Cc1cc(C)cc(C(CC(C)C)NC(=O)c2cc(COc3cccc(F)c3)ccc2CCC(=O)O)c1 (configuration not stated) , what is its reported Vd?
1.32

Given the compound Cc1cc(C)cc(C(CC(C)C)NC(=O)c2cc(COc3cc(F)ccc3F)ccc2CCC(=O)O)c1 (configuration not stated) , what is its reported Vd?
1.43

====

experimental protocol: Oral bioavailability in rat at 11 mg/kg, po
Type: ADME, organism-based
condition notes: in vivo
observed property: bioavailability (%)
Note: unit % is implicit; provide only the numeric part.

Given the compound Cc1cc(C)cc(C(CC(C)C)NC(=O)c2cc(COc3cc(F)ccc3F)ccc2CCC(=O)O)c1 (stereo unspecified) , what is its reported bioavailability?
19
